Reported Cocklebur plant response rating is given for each of the following molecules.
Tested on: cocklebur
Protocol Summary: Test B pre/postemergence cocklebur
Type: in vivo, Xanthium strumarium
Condition Context: Preemergence, Rate 500 g/ha; scale 0 (no effect) to 10 (complete control)
Give your answer as a number; write no unit.

What value of measured Cocklebur plant response rating is listed for Cc1cc(C)c(-n2c(=O)on(C(=O)N(c3ccc(Cl)cc3)C(C)C)c2=O)c(C)c1 [Compound 61] ? 0

Then Cc1ccccc1-n1c(=O)on(C(=O)N(c2ccc(F)c(F)c2)C(C)C)c1=O [Compound 48] ? 0

###

Tested on: rice
Protocol Summary: Test B flood test rice
Format: in vivo, Oryza sativa
Condition Context: Rate 250 g/ha, Postemergence (flood test); scale 0 to 10, 0 is no effect, 10 is complete control
Assay Metric: Plant response rating, Rice
Give your answer as a number; write no unit.

What value of measured Plant response rating, Rice is listed for Cc1nsc(C)c1-n1c(=O)on(C(=O)N(c2ccc(Cl)cc2)C(C)C)c1=O ? 0

Then CC(C)N(C(=O)n1oc(=O)n(C)c1=O)c1ccc(F)cc1 ? 8

Then CC(C)N(C(=O)n1oc(=O)n(N(C)C)c1=O)c1ccc(F)cc1 ? 0

Continue with the next compound.
What value of measured Plant response rating, Rice is listed for CC(C)N(C(=O)n1oc(=O)n(-c2cnn(C)c2)c1=O)c1ccccc1 ? 0

Taken from patent US6737383B1.
